The reported numbers originate from patent US20170210778A1.

# Tgt: human NOD1 (Homo sapiens)
# Construct: expressed in transfected cells; host or cells: HEK293
# Method description: NOD1 functional agonist assay, 293hNOD1-SEAP reporter cells
# Format: cell-based
# Condition label: 293hNOD1 cells, OD above 3*O.D of negative control
Experimental readout: hNod1: concentration where a significant mean optical density (OD) can be observed (µg/mL)

>>> test_value("CCCCCCCCCCCCCC(=O)N[C@H](C(=O)N[C@H](CCC(=O)N[C@H](CSC[C@H](N)C(=O)O)C(=O)O)C(=O)O)C(C)C [Example 12]")
0.001
>>> test_value("CC(C)[C@H](N)C(=O)N[C@H](CCC(=O)N[C@H](CSC[C@H](N)C(=O)O)C(=O)O)C(=O)O [Example 8]")
0.1
>>> test_value("CC[C@@H](C)[C@H](N)C(=O)N[C@H](CCC(=O)N[C@H](CSC[C@H](N)C(=O)O)C(=O)O)C(=O)O [Example 7]")
0.1

* * *

# Tgt: human NOD1 (Homo sapiens, UniProt Q9Y239)
# Construct: expressed in transfected cells; host or cells: HEK293
# Sequence (Q9Y239 1-953): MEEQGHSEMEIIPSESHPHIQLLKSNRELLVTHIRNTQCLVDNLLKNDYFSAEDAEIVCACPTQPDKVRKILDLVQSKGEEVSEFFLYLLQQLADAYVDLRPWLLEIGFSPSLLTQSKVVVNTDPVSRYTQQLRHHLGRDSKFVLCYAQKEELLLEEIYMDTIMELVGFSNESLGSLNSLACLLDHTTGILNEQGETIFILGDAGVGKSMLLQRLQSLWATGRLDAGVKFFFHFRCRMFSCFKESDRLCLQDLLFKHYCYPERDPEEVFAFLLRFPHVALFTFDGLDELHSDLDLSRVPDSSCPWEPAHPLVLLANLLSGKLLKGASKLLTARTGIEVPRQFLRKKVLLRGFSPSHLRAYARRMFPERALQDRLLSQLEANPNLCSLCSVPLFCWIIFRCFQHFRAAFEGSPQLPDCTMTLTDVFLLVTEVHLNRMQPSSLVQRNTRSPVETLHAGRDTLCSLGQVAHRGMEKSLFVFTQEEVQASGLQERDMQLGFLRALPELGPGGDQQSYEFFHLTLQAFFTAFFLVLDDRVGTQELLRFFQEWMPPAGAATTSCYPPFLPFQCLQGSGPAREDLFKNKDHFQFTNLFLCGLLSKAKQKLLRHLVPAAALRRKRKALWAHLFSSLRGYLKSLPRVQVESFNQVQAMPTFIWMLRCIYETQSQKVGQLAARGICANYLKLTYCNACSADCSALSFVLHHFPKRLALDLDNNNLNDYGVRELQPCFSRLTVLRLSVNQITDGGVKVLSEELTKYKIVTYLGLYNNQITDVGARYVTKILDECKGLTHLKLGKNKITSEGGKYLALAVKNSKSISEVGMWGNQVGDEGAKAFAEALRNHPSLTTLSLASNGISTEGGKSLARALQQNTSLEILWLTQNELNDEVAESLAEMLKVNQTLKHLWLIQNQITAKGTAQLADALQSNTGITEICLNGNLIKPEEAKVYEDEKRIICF
# Method description: NOD1 functional agonist assay, 293hNOD1-SEAP reporter cells
# Type: cell-based
# Condition label: 293hNOD1 cells, OD above 3*O.D of negative control
Experimental readout: hNod1: concentration where a significant mean optical density (OD) can be observed (µg/mL)

>>> test_value("N[C@H](CCC(=O)N[C@H](CSC[C@H](N)C(=O)O)C(=O)NCC(=O)O)C(=O)O")
1
>>> test_value("N[C@@H](CSC[C@@H](NC(=O)CC[C@@H](NC(=O)[C@@H](N)Cc1ccccc1)C(=O)O)C(=O)O)C(=O)O")
10
>>> test_value("CCCCCCC(=O)N[C@@H](C)C(=O)N[C@H](CCC(=O)N[C@H](CSC[C@H](N)C(=O)O)C(=O)N[C@H](C)C(=O)O)C(=O)O")
0.1
>>> test_value("C[C@@H](NC(=O)[C@@H](CSC[C@H](N)C(=O)O)NC(=O)CC[C@@H](N)C(=O)O)C(=O)O")
1
>>> test_value("CC(=O)N[C@H]1[C@@H](OCc2ccccc2)O[C@H](CO)[C@@H](O)[C@@H]1O[C@H](C)C(=O)N[C@@H](C)C(=O)N[C@H](CCC(=O)N[C@H](CSC[C@H](N)C(=O)O)C(=O)O)C(=O)O")
1
>>> test_value("CC(=O)N[C@H]1[C@@H](OCc2ccccc2)O[C@H](CO)[C@@H](O)[C@@H]1O[C@H](C)C(=O)N[C@@H](C)C(=O)N[C@H](CCC(=O)N[C@H](CSC[C@H](N)C(=O)O)C(=O)N[C@H](C)C(=O)O)C(=O)O")
1

* * *

# Tgt: human NOD1 (Homo sapiens, UniProt Q9Y239)
# Construct: expressed in transfected cells; host or cells: HEK293
# Sequence (Q9Y239 1-953): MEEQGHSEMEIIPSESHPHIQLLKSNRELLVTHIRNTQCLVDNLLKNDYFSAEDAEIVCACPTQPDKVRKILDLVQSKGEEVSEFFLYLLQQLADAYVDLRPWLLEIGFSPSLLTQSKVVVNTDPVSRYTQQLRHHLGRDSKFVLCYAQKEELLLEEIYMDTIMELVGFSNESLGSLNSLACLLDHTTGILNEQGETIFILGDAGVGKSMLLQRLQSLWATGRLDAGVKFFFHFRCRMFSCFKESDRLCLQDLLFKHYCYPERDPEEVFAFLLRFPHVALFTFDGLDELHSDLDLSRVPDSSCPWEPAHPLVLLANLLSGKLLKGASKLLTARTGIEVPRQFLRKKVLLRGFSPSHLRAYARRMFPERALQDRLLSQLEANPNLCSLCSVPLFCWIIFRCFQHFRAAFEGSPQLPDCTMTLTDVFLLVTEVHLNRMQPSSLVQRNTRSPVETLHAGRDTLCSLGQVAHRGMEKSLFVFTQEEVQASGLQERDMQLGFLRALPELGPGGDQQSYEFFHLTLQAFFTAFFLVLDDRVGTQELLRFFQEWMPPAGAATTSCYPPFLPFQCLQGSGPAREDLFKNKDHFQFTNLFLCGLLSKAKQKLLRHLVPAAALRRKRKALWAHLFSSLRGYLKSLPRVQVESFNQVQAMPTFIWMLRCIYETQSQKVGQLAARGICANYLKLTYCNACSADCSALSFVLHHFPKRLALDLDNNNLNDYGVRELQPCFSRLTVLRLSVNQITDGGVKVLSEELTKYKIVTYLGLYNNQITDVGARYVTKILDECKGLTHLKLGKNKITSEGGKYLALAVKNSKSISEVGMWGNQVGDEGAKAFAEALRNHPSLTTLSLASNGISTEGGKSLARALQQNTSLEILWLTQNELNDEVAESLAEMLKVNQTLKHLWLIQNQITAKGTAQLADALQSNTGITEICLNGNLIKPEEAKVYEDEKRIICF
# Method description: NOD1 functional agonist assay, 293hNOD1-SEAP reporter cells
# Assay type: cell-based
# Condition label: 293hNOD1 cells, OD above 3*O.D of negative control
Mark True for hNod1: concentration where a significant mean optical density (OD) can be observed under 0.01 µg/mL, False if at or over.

>>> class_name("CCCCCCCCCCCCCC(=O)N[C@H](CCC(=O)N[C@H](CSC[C@H](N)C(=O)O)C(=O)O)C(=O)O")
"True"
>>> class_name("N[C@H](CCC(=O)N[C@H](CSC[C@H](N)C(=O)O)C(=O)O)C(=O)O")
"False"
>>> class_name("C[C@H](N)C(=O)N[C@H](CCC(=O)N[C@H](CSC[C@H](N)C(=O)O)C(=O)O)C(=O)O")
"False"
>>> class_name("CCCCCCCCCCCC(=O)N[C@@H](C)C(=O)N[C@H](CCC(=O)N[C@H](CSC[C@H](N)C(=O)O)C(=O)NCC(=O)O)C(=O)O")
"True"
>>> class_name("CCCCCCC(=O)N[C@H](CCC(=O)N[C@H](CSC[C@H](N)C(=O)O)C(=O)NCC(=O)O)C(=O)O")
"False"
>>> class_name("CCCCCCCCCCCCCC(=O)N[C@@H](CC(C)C)C(=O)N[C@H](CCC(=O)N[C@H](CSC[C@H](N)C(=O)O)C(=O)O)C(=O)O")
"True"
>>> class_name("CCCCCCCCCCCCCC(=O)N[C@@H](Cc1ccccc1)C(=O)N[C@H](CCC(=O)N[C@H](CSC[C@H](N)C(=O)O)C(=O)O)C(=O)O")
"True"
>>> class_name("C[C@H](N)C(=O)N[C@H](CCC(=O)N[C@@H](COC[C@@H](N)C(=O)O)C(=O)O)C(=O)O")
"False"

* * *

# hNod1: concentration where a significant mean optical density (OD) can be observed values compiled below
# Tgt: human NOD1 (Homo sapiens, UniProt Q9Y239)
# Construct: expressed in transfected cells; host or cells: HEK293
# Method description: NOD1 functional agonist assay, 293hNOD1-SEAP reporter cells
# Assay type: cell-based
# Condition label: 293hNOD1 cells, OD above 3*O.D of negative control
*1 amine or outer side, *2 acyl side, *3 side chain or, on linkers, in order; H or OH if unused. Where a SMILES comes first, the peptide text is derived from it. [ ]: non-standard residue; d: D form. The star is where a group is joined. d(γGlu) = O=C(O)[C@@H](CCC(=O)[*:2])N[*:1]; Ala(3-yl) = N[C@@H](C*)C(=O)O; dLac = C[C@@H](O)C(=O)O
Experimental readout: hNod1: concentration where a significant mean optical density (OD) can be observed (µg/mL)

>>> test_value("CC(=O)N[C@H]1[C@@H](OCc2ccccc2)O[C@H](CO)[C@@H](O)[C@@H]1O[C@H](C)C(=O)N[C@@H](C)C(=O)N[C@H](CCC(=O)N[C@H](CSC[C@H](N)C(=O)O)C(=O)NCC(=O)O)C(=O)O [Example 32]")
0.1
>>> test_value("C[C@H](N)C(=O)N[C@H](CCC(=O)N[C@H](CSC[C@H](N)C(=O)O)C(=O)NCC(=O)O)C(=O)O [Example 26]")
10
>>> test_value("CCCCCCCCCCCCCC(=O)N[C@@H](C)C(=O)N[C@H](CCC(=O)N[C@H](CSC[C@H](N)C(=O)O)C(=O)NCC(=O)O)C(=O)O [Example 29]")
0.0001
>>> test_value("C[C@H](N)C(=O)N[C@H](CCC(=O)N[C@H](CSC[C@H](N)C(=O)O)C(=O)N[C@H](C)C(=O)O)C(=O)O [Example 18]")
1
>>> test_value("N[C@H](CCC(=O)N[C@@H](COC[C@@H](N)C(=O)O)C(=O)O)C(=O)O [Example 34]")
10
>>> test_value("CCCCCCCCCCCC(=O)N[C@H](CCC(=O)N[C@H](CSC[C@H](N)C(=O)O)C(=O)N[C@H](C)C(=O)O)C(=O)O [Example 16]")
0.01
>>> test_value("CCCCCCCCCCCC(=O)N[C@@H](C)C(=O)N[C@H](CCC(=O)N[C@H](CSC[C@H](N)C(=O)O)C(=O)N[C@H](C)C(=O)O)C(=O)O [Example 20]")
0.01
>>> test_value("C[C@H](NC(=O)[C@@H](C)O)C(=O)N[C@H](CCC(=O)N[C@H](CSC[C@H](N)C(=O)O)C(=O)NCC(=O)O)C(=O)O [Example 30] (H-[dLac]A[d(γGlu)][dC](Ala(3-yl))G-OH)")
10
>>> test_value("CC(C)C[C@H](N)C(=O)N[C@H](CCC(=O)N[C@H](CSC[C@H](N)C(=O)O)C(=O)O)C(=O)O [Example 6]")
0.1
>>> test_value("CCCCCCCCCCCCCC(=O)N[C@H](CCC(=O)N[C@H](CSC[C@H](N)C(=O)O)C(=O)N[C@H](C)C(=O)O)C(=O)O [Example 17]")
0.01
>>> test_value("CCCCCCC(=O)N[C@@H](C)C(=O)N[C@H](CCC(=O)N[C@H](CSC[C@H](N)C(=O)O)C(=O)NCC(=O)O)C(=O)O [Example 27]")
1
>>> test_value("CCCCCCC(=O)N[C@H](CCC(=O)N[C@H](CSC[C@H](N)C(=O)O)C(=O)O)C(=O)O [Example 2]")
0.1
